# Target: UniProt:P10275
# Sequence (P10275 whole entry, species assumed): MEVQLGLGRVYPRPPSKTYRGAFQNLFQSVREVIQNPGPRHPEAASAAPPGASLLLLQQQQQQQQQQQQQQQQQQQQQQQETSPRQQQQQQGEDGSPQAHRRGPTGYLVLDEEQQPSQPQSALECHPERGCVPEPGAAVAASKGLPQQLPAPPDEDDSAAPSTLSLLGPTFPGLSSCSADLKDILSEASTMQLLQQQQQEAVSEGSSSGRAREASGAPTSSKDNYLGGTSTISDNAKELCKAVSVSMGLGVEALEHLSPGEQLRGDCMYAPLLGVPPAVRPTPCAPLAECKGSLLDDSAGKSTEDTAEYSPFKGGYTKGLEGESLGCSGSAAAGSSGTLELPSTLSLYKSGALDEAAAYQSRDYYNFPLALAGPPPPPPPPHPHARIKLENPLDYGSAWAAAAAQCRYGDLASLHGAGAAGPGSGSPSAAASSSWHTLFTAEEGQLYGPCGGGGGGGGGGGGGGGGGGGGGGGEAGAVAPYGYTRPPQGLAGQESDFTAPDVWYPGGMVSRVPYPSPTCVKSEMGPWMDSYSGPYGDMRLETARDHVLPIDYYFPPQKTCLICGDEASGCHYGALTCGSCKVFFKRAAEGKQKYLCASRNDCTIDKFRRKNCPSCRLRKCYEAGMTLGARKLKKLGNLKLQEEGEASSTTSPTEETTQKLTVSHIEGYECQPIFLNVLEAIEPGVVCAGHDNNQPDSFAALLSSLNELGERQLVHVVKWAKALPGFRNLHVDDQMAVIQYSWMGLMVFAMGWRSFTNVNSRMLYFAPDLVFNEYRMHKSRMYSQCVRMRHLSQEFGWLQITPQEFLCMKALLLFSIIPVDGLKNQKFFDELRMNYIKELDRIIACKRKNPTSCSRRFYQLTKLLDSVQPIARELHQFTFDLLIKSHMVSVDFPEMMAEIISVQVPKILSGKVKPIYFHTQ
# Conditions used: read-out: Androgen receptor IC50; receptor binding, 3H-testosterone displacement
For each of the compounds below, state its IC50.
One number for each entry, in nM.

Answered cases to consult:
C[C@]12CC[C@H]3[C@@H]([C@H](C4CC4)CC4=CC(=O)CC[C@@H]43)[C@@H]1CC[C@@]21C=CC(=O)O1 (stereo in doubt) [Example 12A]: 300
CC[C@]12CC[C@H]3[C@@H]([C@H](C)CC4=CC(=O)CC[C@@H]43)[C@@H]1CC[C@@]21C=CC(=O)O1 (stereo in doubt) [Example 8A]: 43
CC[C@]12CC[C@H]3[C@@H]([C@H](C4CC4)CC4=CC(=O)CC[C@@H]43)[C@@H]1CC[C@@]21C=CC(=O)O1 (stereo in doubt) [Example 11A]: 94
C[C@]12CC[C@H]3[C@@H](CCC4=CC(=O)CC[C@@H]43)[C@@H]1CC1(CC1)[C@@]21C=CC(=O)O1 (stereo in doubt) [Example 5]: 310

// below: IC50 requested for another compound
Write down the reported IC50 (system: UniProt:P10275) of C=C[C@@H]1CC2=CC(=O)CC[C@@H]2[C@H]2CC[C@@]3(C)[C@@H](CC[C@@]34C=CC(=O)O4)[C@@H]21 (stereo in doubt) [Example 4A]
130
